- assay details: Solubility test
- Assay type: physicochemical
- condition context: organic solvent or mixture, thermodynamic from solid; Ethanol; 0.1 g compound + 1 mL solvent, heated at 40°C for 10 min., returned to room temperature, visual observation
assay readout: solubility at 10 min

Query: // returns reported solubility at 10 min for input CCOC(C)CCc1ccc(O)cc1 (centres unmarked)
Result: > 100 mg/mL

Query: Also, CC(O)CCc1ccc(O)cc1 (centres unmarked) [4-(3-Hydroxybutyl)phenol, 4-(3-hydroxybutyl)phenol, reference compound] please.
Result: > 100 mg/mL

###

- Test system: B16 melanoma cells
- assay details: in vitro melanin production inhibition test
- Type: cell-based
- condition context: Mus musculus, concentration inhibiting production of melanin by 50%, cultured for 72 hours, theophylline 2 mmol/L, melanin per unit amount of protein
assay readout: log10(IC50) (log10 of the value in µg/mL)
Heads up: the numbers are on a log10 scale; they represent IC50 in µg/mL.

Query: // returns reported log10(IC50) for input COC(C)CCc1ccc(O)cc1 (centres unmarked) [4-(3-Methoxybutyl)phenol, 4-(3-methoxybutyl)phenol]
Result: 0.30

Query: Also, O=C1O[C@H]([C@@H](O)CO)C(O)=C1O [Ascorbic acid, ascorbic acid, reference compound] please.
Result: 1.78

Query: Also, O=c1cc(CO)occ1O [Kojic acid, kojic acid, reference compound] please.
Result: 2.26

Query: Also, CC(C)OC(C)CCc1ccc(O)cc1 (centres unmarked) [4-(3-Isopropoxybutyl)phenol, 4-(3-isopropoxybutyl)phenol] please.
Result: 0.30

Query: Also, OC[C@H]1O[C@@H](Oc2ccc(O)cc2)[C@H](O)[C@@H](O)[C@@H]1O [Arbutin, arbutin, reference compound] please.
Result: 1.48

Query: Also, CCOC(C)CCc1ccc(O)cc1 (centres unmarked) [4-(3-Ethoxybutyl)phenol, 4-(3-ethoxybutyl)phenol] please.
Result: 0.30

Query: Also, CCCOC(C)CCc1ccc(O)cc1 (centres unmarked) [4-(3-Propoxybutyl)phenol, 4-(3-propoxybutyl)phenol] please.
Result: 0.40

Query: Also, CCCCC/C=C\C/C=C\CCCCCCCC(=O)O [Linoleic acid, linoleic acid, reference compound] please.
Result: 0.60

###

- assay details: Solubility test
- Format: physicochemical
- condition context: oil or lipid, thermodynamic from solid; Isocetyl myristate; 0.1 g compound + 1 mL solvent, heated at 40°C for 10 min., returned to room temperature, visual observation
- Description: By using 4-(3-ethoxybutyl)phenol obtained in the above-mentioned Production Example 1, the following solubility test was carried out. Note here that as a comparison target, 4-(3-hydroxybuty)phenol was used. To 0.1 g of each compound, 1 mL of each solvent described in the following table 1 was added. The mixture was heated at 40°C for 10 min., and then the temperature was returned to room temperature. The solubility in the solvent at this time was evaluated by visual observation. […]
Field: solubility at 10 min. Provide a value for each of the compounds that follow.

Query: // returns reported solubility at 10 min for input CC(O)CCc1ccc(O)cc1 (centres unmarked) [4-(3-Hydroxybutyl)phenol, 4-(3-hydroxybutyl)phenol, reference compound]
Result: < 100 mg/mL

Query: Also, CCOC(C)CCc1ccc(O)cc1 (centres unmarked) please.
Result: > 100 mg/mL

###

- assay details: Solubility test
- Assay type: physicochemical
- condition context: organic solvent or mixture, thermodynamic from solid; Dipropylene glycol; 0.1 g compound + 1 mL solvent, heated at 40°C for 10 min., returned to room temperature, visual observation
- Experimental: By using 4-(3-ethoxybutyl)phenol obtained in the above-mentioned Production Example 1, the following solubility test was carried out. Note here that as a comparison target, 4-(3-hydroxybuty)phenol was used. To 0.1 g of each compound, 1 mL of each solvent described in the following table 1 was added. The mixture was heated at 40°C for 10 min., and then the temperature was returned to room temperature. The solubility in the solvent at this time was evaluated by visual observation. […]
Field: solubility at 10 min. Provide a value for each of the molecules that follow.

Query: // returns reported solubility at 10 min for input CC(O)CCc1ccc(O)cc1 (centres unmarked) [4-(3-Hydroxybutyl)phenol, 4-(3-hydroxybutyl)phenol, reference compound]
Result: > 100 mg/mL

Query: Also, CCOC(C)CCc1ccc(O)cc1 (centres unmarked) [4-(3-Ethoxybutyl)phenol, 4-(3-ethoxybutyl)phenol] please.
Result: > 100 mg/mL
